- Tested on: MOLM-13 cells
- experimental details: Cell viability assay (CellTiter-Glo) in MOLM-13 cells, alone or with gilteritinib
- Assay type: cell-based
- experimental conditions: Homo sapiens, MOLM-13, 72 h, MOLM-13 cells, with gilteritinib 20 nM, three days, CellTiter-Glo; read-out: MOLM-13 IC50 gilteritinib
pIC50: −log10 of the molar value.
measurement label: pIC50

Provide value of pIC50 for this record tested with MOLM-13 cells: O=C1CCC(N2C(=O)c3ccc(NCCCC4CC(n5cc(-c6cnc7ccccc7n6)cn5)C4)cc3C2=O)C(=O)N1 (centres unmarked) [GS-107]
7.00 to 8.00

----------
- Test system: MOLM-13 cells
- experimental details: Cell viability assay (CellTiter-Glo) in MOLM-13 cells, alone or with gilteritinib
- Type: cell-based
- experimental conditions: Homo sapiens, MOLM-13, 72 h, MOLM-13 cells, compound alone (without gilteritinib), three days, CellTiter-Glo; read-out: MOLM-13 IC50
measurement label: IC50

Here is how some compounds turned out for IC50.
[[record]]
compound = "O=C1CCC(N2C(=O)c3ccc(NC[C@H]4C[C@H](n5nc(C6CC6)c6ncccc65)C4)cc3C2=O)C(=O)N1 (stereo partly shown) [GS-475]"
measurement_label = "IC50"
endpoint_result = "> 1000 nM"

[[record]]
compound = "O=C1CCC(N2C(=O)c3ccc(NC[C@H]4C[C@H](n5cc(-c6cccc(C7CC7)n6)c(C6CC6)n5)C4)cc3C2=O)C(=O)N1 (stereo partly shown) [GS-466]"
measurement_label = "IC50"
endpoint_result = "100 to 1000 nM"

[[record]]
compound = "O=C1CCC(N2C(=O)c3ccc(NC[C@H]4C[C@H](n5cc(-c6ccc(NC7CCNCC7)cn6)c(C6CC6)n5)C4)cc3C2=O)C(=O)N1 (stereo partly shown) [GS-302]"
measurement_label = "IC50"
endpoint_result = "> 1000 nM"


Kindly review the next compound as well.
Any idea what IC50 was measured for O=C1CCC(N2C(=O)c3ccc(NC[C@H]4C[C@@H](n5cc(-c6cnc7ccc(C8CCOCC8)cc7n6)cn5)C4)cc3C2=O)C(=O)N1 (stereo partly shown) [GS-193] ?
100 to 1000 nM

The origin of these recorded values is patent US20240050428A1.
